Tested on: C2A
Assay Text: qHTS profiling for inhibitors of Plasmodium falciparum proliferation (AID 504749); also: nearly all actives have a fitted effect of over 60% in size
Condition Summary: P. falciparum in erythrocytes, SYBR Green DNA, 72 h; series mostly up to 28.7 µM
Procedure: NIH National Institute of Allergy and Infectious Diseases [NIAID] NIH Chemical Genomics Center [NCGC] […] Because mature erythrocytes lack DNA, only Plasmodium-derived DNA is detected. NCGC Assay Protocol Summary: The SYBR Green viability assay was adapted from a method described previously (Plouffe et al., 2008). […] The following morning, fluorescence intensity at 485(14) nm excitation and 535(25) nm emission wavelengths was measured on an EnVision (Perkin Elmer) plate reader. […]
Inconclusive results are not listed. Calls of active or inactive are those of the source. Calls follow the shape of the dose curve; as a rule, active = well fitted inhibition curve with a large enough effect; inconclusive = small, poorly fitted or top-dose-only effect; inactive = flat fitted curve, though single readings scatter.
Mark one answer only. Choices: class 1 = active, class 0 = inactive

Past entries and their recorded results:
{"Compound": "CN[C@@H]1C[C@@H](c2ccc(Cl)c(Cl)c2)c2ccccc21", "Category Label": "class 0"}
{"Compound": "CC[N+]1(CCOC(=O)C(O)(c2ccccc2)c2ccccc2)CCCCC1", "Category Label": "class 0"}
{"Compound": "C=CCN1CC[C@]23CCCCC2[C@H]1Cc1ccc(O)cc13 (some centres undefined)", "Category Label": "class 0"}
{"Compound": "C1CCC(NC2CCCCC2)CC1", "Category Label": "class 0"}
{"Compound": "O=C(O)C(Cl)Cl", "Category Label": "class 0"}

Query: Test call, this compound: `CCCCCCCCCCCCCCCC[N+](C)(C)C`
Reply: class 1

Query: I would be grateful if you could indicate the recorded call for `O=C(O)COc1ccccc1` .
Reply: class 0

Query: How did this test come out for CC(C)NC(C)Cc1ccc(I)cc1 (centres undefined) ?
Reply: class 0

Query: Call for entry NC(=O)CN1CC(O)CC1=O (centres undefined) :
Reply: class 0

---

Assay Text: qHTS of pediatric cancer cell lines to identify multiple opportunities for drug repurposing: Primary screen for TC32 cells (AID 1347089); also: nearly all actives have a fitted effect of over 60% in size
Condition Summary: TC32 Ewing sarcoma viability, CellTiter-Glo luminescence, 48 h; series mostly up to 45.8 µM
Inconclusive results are not listed. Calls of active or inactive are those of the source. Calls follow the shape of the dose curve; as a rule, active = well fitted cell-killing curve with a large enough effect; inconclusive = small, poorly fitted or top-dose-only effect; inactive = flat fitted curve, though single readings scatter.
Permitted responses: Y = active, N = inactive

{"Molecule": "CSCC[C@@H](NC(=O)[C@@H](Cc1ccccc1)NC(=O)CNC(=O)CNC(=O)[C@@H](N)Cc1ccc(O)cc1)C(=O)O", "Category Label": "N"}
{"Molecule": "Nc1ccc(Cl)cc1", "Category Label": "N"}
{"Molecule": "CC(=Cc1csc(C)n1)[C@@H]1C[C@H]2O[C@@H]2CCC[C@H](C)[C@@H](O)[C@@H](C)C(=O)C(C)(C)[C@@H](O)CC(=O)O1", "Category Label": "Y"}
{"Molecule": "C=CCC1=C(C)C(OC(=O)C2C(C=C(C)C)C2(C)C)CC1=O (stereo not given)", "Category Label": "N"}

Below: the item to evaluate.
Query: # lookup: test call for `CCc1c(C(=O)C(N)=O)c2c(OCC(=O)O)cccc2n1Cc1ccccc1`
Reply: N

---

Tested on: CRL-7250
Assay Text: Cytotoxic Profiling of Annotated Libraries Using Quantitative High-Throughput Screening (AID 1296008); also: % is scaled to controls: 0 for no effect and ±100 for the full control effect; nearly all actives have a fitted effect of over 60% in size
Condition Summary: Five cell lines viability, CellTiter-Glo ATP luminescence, 48-72 h; hits give low values
Inconclusive results are not listed.
Property Measured: max response (%)
The figure you give is taken to be in %; do not add the unit.

Here's what some known entries look like.
{"Compound": "Nc1ccc(Cl)cc1", "max response, %": -5.83}
{"Compound": "CCC(=O)OC1CCC2C3CCC4=CC(=O)CC[C@@]4(C)C3CC[C@]12C (stereo partly drawn)", "max response, %": -4.7}
{"Compound": "CCCCC(CC)COC(=O)c1ccccc1C(=O)OCC(CC)CCCC (stereo not drawn)", "max response, %": -5.66}
{"Compound": "COc1ccc2c(c1)[C@]13CCCCC1C(C2)N(C)CC3 (stereo partly drawn)", "max response, %": 4.77}

// sample `C[C@](O)(COc1ccc(C#N)cc1)C(=O)Nc1ccc(C#N)c(C(F)(F)F)c1` , its max response was -6.61

C=C[C@@H]1CN2CCC1C[C@@H]2[C@@H](O)c1ccnc2ccccc12 (stereo partly drawn) has a reported max response of -5.2

Measured max response, CCCC[N+]1(C)[C@H]2CC(OC(=O)[C@H](CO)c3ccccc3)C[C@H]1[C@H]1O[C@H]12 (stereo partly drawn) : -3.26

Form: compound = CC(Cc1ccc(O)cc1)NCC(O)c1cc(O)cc(O)c1 (stereo not drawn) ; max response = 3.52

# max response (compound: `O=[N+]([O-])/N=C1\NCCN1Cc1ccc(Cl)nc1` ) is -0.312

Kindly note the recorded max response for `S=C(SSC(=S)N1CCCCC1)N1CCCCC1` , which is -1.9

CCC(=O)O[C@@H]1C=C2CCC3C(CCC4(C)C3CC[C@@H]4OC(=O)CC)C2CC1 (stereo partly drawn) yielded max response of -3.72

Query CCOP(=O)(NC(C)C)Oc1ccc(SC)c(C)c1 (stereo not drawn) yields max response of -0.0778

According to the records, this compound `CC(C)(C)NC[C@H](O)c1ccc(O)cc1Cl` displays max response of -2.25

The measurements presented in this section are drawn from PubChem BioAssay (NCATS).
